# study target: HCV polymerase (NS5B570n-Con1) (Hepatitis C virus genotype 1b)
# Construct: contains a 21 amino acid deletion at the C-terminus relative to the full-length HCV polymerase; 6-histidine (N)
# test details: biochemical
# Method: HCV NS5B RNA Polymerase Activity The enzymatic activity of HCV polymerase (NS5B570n-Con1) was measured as the incorporation of radiolabeled nucleotide monophosphates into acid insoluble RNA products. Unincorporated radiolabeled substrate was removed by filtration and scintillant was added to the washed and dried filter plate containing radiolabeled RNA product. […] Data was analyzed in Excel® (Microsoft®) and ActivityBase® (idbs®). […] All data was expressed as a percentage of the positive control. […]
Field: IC50. Provide a value for each of the compounds that follow.
Give bare numbers, in nM.

// worked examples, IC50 included
compound="CC(C)(C)c1cc(-c2cc3ccc(NS(C)(=O)=O)cc3c(=O)o2)cc(-c2ccc[nH]c2=O)c1 [Compound I-5]" value_type=IC50 units=nM data_value=9
compound="COc1c(-c2nc3ccc(NS(C)(=O)=O)cc3c(=O)[nH]2)cc(-c2ccc[nH]c2=O)cc1C(C)(C)C [Compound I-13]" value_type=IC50 units=nM data_value=9
compound="COc1c(-c2cc3ccc(NS(C)(=O)=O)cc3c(=O)[nH]2)cc(-c2ccc[nH]c2=O)cc1C(C)(C)C [Compound I-11]" value_type=IC50 units=nM data_value=4

Consider the record given below.
Ask | Answer with IC50 of COc1c(-c2cc3ccc(NS(C)(=O)=O)cc3c(=O)o2)cc(-c2cc(F)c[nH]c2=O)cc1C(C)(C)C [Compound I-6] measured for HCV polymerase (NS5B570n-Con1) (Hepatitis C virus genotype 1b).
Reply | 3

###

# study target: HCV polymerase (NS5B570n-Con1) (Hepatitis C virus genotype 1b, UniProt Q9WMX2)
# Construct: contains a 21 amino acid deletion at the C-terminus relative to the full-length HCV polymerase; 6-histidine (N)
# test details: biochemical
# Procedure: HCV NS5B RNA Polymerase Activity The enzymatic activity of HCV polymerase (NS5B570n-Con1) was measured as the incorporation of radiolabeled nucleotide monophosphates into acid insoluble RNA products. Unincorporated radiolabeled substrate was removed by filtration and scintillant was added to the washed and dried filter plate containing radiolabeled RNA product. […] Data was analyzed in Excel® (Microsoft®) and ActivityBase® (idbs®). […] All data was expressed as a percentage of the positive control. […]
value type: pIC50
Give bare numbers, as −log10 of the molar value.

I would be grateful if you could provide pIC50 for each of the following entries.
1. COc1c(C2Cc3ccc(NS(C)(=O)=O)cc3CO2)cc(-c2ccc[nH]c2=O)cc1C(C)(C)C (stereo not shown)
2. COc1c(-c2cc3ccc(NS(C)(=O)=O)cc3c(=O)o2)cc(-c2c[nH]c(=O)[nH]c2=O)cc1C(C)(C)C

Reply |
1. 9.00
2. 9.00

I would be grateful if you could provide pIC50 for each of the following entries.
1. COc1c(C2CCc3cc(NS(C)(=O)=O)ccc3O2)cc(-c2ccc[nH]c2=O)cc1C(C)(C)C (stereo not shown)
2. COc1c(-c2cc3ccccc3c(=O)o2)cc(-c2ccc[nH]c2=O)cc1C(C)(C)C

Reply |
1: 9.00; 2: 8.70

###

Field: melting point. Provide a value for each of the molecules that follow.

// worked examples, melting point included
molecule=COc1c(-c2cc3ccc(NS(C)(=O)=O)cc3c(=O)o2)cc(-c2cc(F)c[nH]c2=O)cc1C(C)(C)C data_value="295 to 297 °C"
molecule=COc1c(-c2cc3ccccc3c(=O)[nH]2)cc(-c2ccc[nH]c2=O)cc1C(C)(C)C data_value="138 to 140 °C"
molecule=COc1ccc(-c2cc(-c3cc4ccc(NS(C)(=O)=O)cc4c(=O)o3)c(OC)c(C(C)(C)C)c2)c(=O)[nH]1 data_value="231 to 233 °C"
molecule=COc1c(-c2cc3ccccc3c(=O)o2)cc(-c2ccc[nH]c2=O)cc1C(C)(C)C data_value="253 to 255 °C"

I would be grateful if you could provide melting point for each of the following entries.
1. COc1c(-c2nc3ccc(NS(C)(=O)=O)cc3c(=O)[nH]2)cc(-c2ccc[nH]c2=O)cc1C(C)(C)C
2. COc1c(-c2cc3ccc(NS(C)(=O)=O)cc3c(=O)[nH]2)cc(-c2ccc[nH]c2=O)cc1C(C)(C)C

Reply |
1: 228 to 230 °C; 2: 252 to 254 °C

Ask | For the molecule COc1c(C2Cc3ccc(NS(C)(=O)=O)cc3CO2)cc(-c2ccc[nH]c2=O)cc1C(C)(C)C (stereo not shown) , give its measured melting point value.
Reply | 170 to 175 °C

###

# test details: in vitro
# measurement conditions: human
value type: CC50 (µM)
Numbers only, in µM.

Ask | For the compound COc1c(-c2cc3ccc(NS(C)(=O)=O)cc3c(=O)[nH]2)cc(-c2ccc[nH]c2=O)cc1C(C)(C)C , give its measured CC50 value.
Reply | 42.6

###

Field: melting point. Provide a value for each of the compounds that follow.

// worked examples, melting point included
compound="COc1c(-c2cc3ccc(NS(C)(=O)=O)cc3c(=O)o2)cc(-c2c[nH]c(=O)[nH]c2=O)cc1C(C)(C)C [Compound I-14]" data_value="> 300 °C"
compound="COc1c(-c2cc(=O)c3cc(NS(C)(=O)=O)ccc3o2)cc(-c2ccc[nH]c2=O)cc1C(C)(C)C [Compound I-1]" data_value="> 300 °C"

Consider the record given below.
Ask | For the compound CC(C)(C)c1cc(-c2cc3ccc(NS(C)(=O)=O)cc3c(=O)o2)cc(-c2ccc[nH]c2=O)c1 [Compound I-5] , give its measured melting point value.
Reply | > 300 °C
